Value source: patent US6608086B2

# Tested on: human prostatic tissue
# Assay explanation: In vitro human prostate model: block of phenylephrine-induced contraction of human prostatic tissue
# Type: cell-based
# Condition label: block of phenylephrine-induced contraction of human prostate
Where a name gives a salt, the structure may show the parent alone.
Outcome: Y for pA2 of at least 9; N for anything lower.

# Compound, Answer label
rows = [
    ("CCC1=C(C(=O)NC)C(c2ccc([N+](=O)[O-])cc2)C(C(=O)NCCCN2CCC(c3ccccc3)(c3ccccc3)CC2)=C(CC)N1 (stereo not drawn)", "N"),
    ("CCC1=C(C(N)=O)C(c2ccc([N+](=O)[O-])cc2)C(C(=O)NCCCN2CCC(C#N)(c3ccccc3)CC2)=C(CC)N1 (single isomer, unassigned; (+)) [(+)-102]", "Y"),
    ("CCC1=C(C(=O)NCCCN2CCC(c3ccccc3)(c3ccccc3)CC2)C(c2ccc([N+](=O)[O-])cc2)C(C(N)=O)=C(C)N1 (stereo not drawn) [Example 81, hydrochloride]", "N"),
    ("CCC1=C(C(=O)NCCCN2CCC(c3ccccc3)(c3ccccc3)CC2)C(c2ccc([N+](=O)[O-])cc2)C(C(=O)OC)=C(C)N1 (stereo not drawn)", "N"),
]
